meta.source: patent US4672117A

# target_system: limbic D-2 dopamine receptor (Rattus norvegicus)
# Sequence (P61169 whole entry): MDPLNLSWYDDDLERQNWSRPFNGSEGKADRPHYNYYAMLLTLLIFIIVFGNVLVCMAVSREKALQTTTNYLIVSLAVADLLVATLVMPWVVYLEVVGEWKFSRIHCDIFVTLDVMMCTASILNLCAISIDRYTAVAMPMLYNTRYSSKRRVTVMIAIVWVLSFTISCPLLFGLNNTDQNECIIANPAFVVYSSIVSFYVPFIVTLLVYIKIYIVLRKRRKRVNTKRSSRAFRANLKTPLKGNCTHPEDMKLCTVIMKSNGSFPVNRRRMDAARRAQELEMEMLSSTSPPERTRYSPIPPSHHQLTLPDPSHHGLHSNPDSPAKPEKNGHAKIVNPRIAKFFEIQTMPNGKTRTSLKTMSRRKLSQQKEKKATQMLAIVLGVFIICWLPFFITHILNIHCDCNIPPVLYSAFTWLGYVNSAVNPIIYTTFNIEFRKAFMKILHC
# assay_protocol: limbic D-2 binding, 3H-spiroperidol, homogenized limbic brain tissue
# protocol_conditions: 95% confidence interval in brackets, read-out: Limbic D-2 inhibition constant (Ki)
pKi: −log10 of the molar value.
Could you label it y if measured pKi is 8 or higher, and n otherwise?

c1ccc(C2CN(CCCc3cccnc3)Cc3c2[nH]c2ccccc32)cc1 (stereo not drawn); n
c1ccc(C2CN(CCCCc3ccncc3)Cc3c2[nH]c2ccccc32)cc1 (stereo not drawn); n
c1ccc(C2CN(CCc3ccccn3)Cc3c2[nH]c2ccccc32)cc1 (stereo not drawn); n

Query molecule follows.
Q: Please indicate if the recorded pKi for Fc1ccc(-n2c3c(c4cc(F)ccc42)CN(CCc2ccc4ccccc4n2)CC3)cc1 meets or exceeds 8.
Ans: y
